Experiment summary: Resazurin cytotoxicity assay, HEK293
Type: cell-based, Human
Assay context: human, HEK293 cells, 24 h, highest concentration 100 μM; n = 3; read-out: CC50 HEK 293
Consider the following molecules and their measured CC50 at 24 h readings.
Observable: CC50 at 24 h

Molecule: Cn1c([N+](=O)[O-])cnc1C(=O)NC1CCCCC1 [Compound 8k]
Observable: CC50 at 24 h
Observed value: > 100 µM

Molecule: CC(NC(=O)c1ncc([N+](=O)[O-])[nH]1)c1ccc(F)cc1 (stereo not drawn) [Compound 12d]
Observable: CC50 at 24 h
Observed value: > 100 µM

Molecule: Cc1ncc([N+](=O)[O-])n1CCO [Compound 1, Metronidazole, reference compound]
Observable: CC50 at 24 h
Observed value: > 100 µM

Molecule: Cc1ccc(CCNC(=O)c2ncc([N+](=O)[O-])n2C)cc1 [Compound 8e]
Observable: CC50 at 24 h
Observed value: > 100 µM

Molecule: CNC(=O)c1ncc([N+](=O)[O-])[nH]1 [Compound 12m]
Observable: CC50 at 24 h
Observed value: > 100 µM

Molecule: Cc1ccc(CCn2cc([N+](=O)[O-])nc2C(N)=O)cc1 [Compound 13d]
Observable: CC50 at 24 h
Observed value: > 100 µM

Molecule: O=C(NCCO)c1ncc([N+](=O)[O-])[nH]1 [Compound 12n]
Observable: CC50 at 24 h
Observed value: > 100 µM

Molecule: Cn1c([N+](=O)[O-])cnc1C(=O)N1CCCC1 [Compound 8i]
Observable: CC50 at 24 h
Observed value: > 100 µM

Molecule: Cn1c([N+](=O)[O-])cnc1C(=O)NCc1ccc(F)cc1 [Compound 8a]
Observable: CC50 at 24 h
Observed value: > 100 µM

Molecule: O=C(c1ncc([N+](=O)[O-])[nH]1)N1CCCC1 [Compound 12i]
Observable: CC50 at 24 h
Observed value: > 100 µM

Molecule: Cn1c([N+](=O)[O-])cnc1C(=O)NC1CC1 [Compound 8j]
Observable: CC50 at 24 h
Observed value: > 100 µM

Molecule: CN(C)C(=O)c1ncc([N+](=O)[O-])[nH]1 [Compound 12g]
Observable: CC50 at 24 h
Observed value: > 100 µM

* * *

compounds and their reported EC50
System: E. histolytica HM1:IMSS
Experiment summary: ATP-bioluminescence growth/survival EC50 assay, E. histolytica
Type: cell-based, Entamoeba histolytica
Assay context: Entamoeba histolytica, read-out: EC50 E. histolytica HM1:IMSS

Compound: CC(NC(=O)c1ncc([N+](=O)[O-])n1C)c1ccc(F)cc1 (stereo not shown)
Target or test system: E. histolytica HM1:IMSS
Inequality sign: =
EC50 / µM: 10
//
Compound: NC(=O)c1ncc([N+](=O)[O-])[nH]1 [Compound 12l, 5-nitro-1H-imidazole-2-carboxamide]
Target or test system: E. histolytica HM1:IMSS
Inequality sign: =
EC50 / µM: 13
//
Compound: O=C(NO)c1nc([N+](=O)[O-])cn1Cc1ccc(OC(F)(F)F)cc1 [Compound 14d]
Target or test system: E. histolytica HM1:IMSS
Inequality sign: =
EC50 / µM: 10
//
Compound: Cn1c([N+](=O)[O-])cnc1C(=O)NCc1ccccn1
Target or test system: E. histolytica HM1:IMSS
Inequality sign: =
EC50 / µM: 14
//
Compound: O=C(NCc1cccc(OC(F)(F)F)c1)c1ncc([N+](=O)[O-])[nH]1 [Compound 12c]
Target or test system: E. histolytica HM1:IMSS
Inequality sign: =
EC50 / µM: 3.6
//
Compound: Cn1c([N+](=O)[O-])cnc1C(=O)NC1CCCCC1
Target or test system: E. histolytica HM1:IMSS
Inequality sign: =
EC50 / µM: 3.7
//
Compound: Cn1c([N+](=O)[O-])cnc1C(=O)NC1CC1
Target or test system: E. histolytica HM1:IMSS
Inequality sign: =
EC50 / µM: 12
//
Compound: Cn1c([N+](=O)[O-])cnc1C(=O)N1CCCC1
Target or test system: E. histolytica HM1:IMSS
Inequality sign: =
EC50 / µM: 22
//
Compound: CNC(=O)c1ncc([N+](=O)[O-])[nH]1 [Compound 12m]
Target or test system: E. histolytica HM1:IMSS
Inequality sign: =
EC50 / µM: 6.1
//
Compound: CCOC(=O)c1nc([N+](=O)[O-])cn1Cc1ccc(OC(F)(F)F)cc1 [Compound 14c]
Target or test system: E. histolytica HM1:IMSS
Inequality sign: =
EC50 / µM: 51
//
Compound: O=C(NCc1ccccn1)c1ncc([N+](=O)[O-])[nH]1 [Compound 12f]
Target or test system: E. histolytica HM1:IMSS
Inequality sign: =
EC50 / µM: 15
//
Compound: O=C(NCc1ccc(F)cc1)c1ncc[nH]1
Target or test system: E. histolytica HM1:IMSS
Inequality sign: >
EC50 / µM: 50
//
Compound: NC(=O)c1nc([N+](=O)[O-])cn1Cc1cccc(OC(F)(F)F)c1 [Compound 13c]
Target or test system: E. histolytica HM1:IMSS
Inequality sign: >
EC50 / µM: 50
